- ASSAY METHOD TEXT: Light resistance test / artificial sunlight irradiation test of optical filter
- Format: physicochemical
- MEASUREMENT PARAMETERS: visible light 380 to 780 nm, 50 mW/cm^2, 250 hours, 30±10° C., humidity 50±20%
MEASURED PROPERTY: Absorption Retention after Light resistance test for 250 hours (%)
One number for each entry, in %.

Answered examples (4):
INSERT INTO measurements (smiles, measured_number) VALUES
  ('CCCCCCOc1ccc(C2=c3nc(c4c5cccc6cccc(c3=4)c65)C(c3ccc(OCCCCCC)cc3)=c3c4c(c5[n]3[Cu][n]3c2c2c(c3C(c3ccc(OCCCCCC)cc3)=c3nc(c6c7cccc8cccc(c3=6)c87)C=5c3ccc(OCCCCCC)cc3)-c3cccc5cccc-2c35)-c2cccc3cccc-4c23)cc1', 80),
  ('CCCCCOc1ccc(C2=c3nc(c4c5cccc6cccc(c3=4)c65)C(c3ccc(OCCCCC)cc3)=c3c4c(c5[n]3[Cu][n]3c2c2c(c3C(c3ccc(OCCCCC)cc3)=c3nc(c6c7cccc8cccc(c3=6)c87)C=5c3ccc(OCCCCC)cc3)-c3cccc5cccc-2c35)-c2cccc3cccc-4c23)cc1', 95),
  ('CCCCCCCCCCOc1ccc(C2=c3nc(c4c5cccc6cccc(c3=4)c65)C(c3ccc(OCCCCCCCCCC)cc3)=c3c4c(c5[n]3[Ni][n]3c2c2c(c3C(c3ccc(OCCCCCCCCCC)cc3)=c3nc(c6c7cccc8cccc(c3=6)c87)C=5c3ccc(OCCCCCCCCCC)cc3)-c3cccc5cccc-2c35)-c2cccc3cccc-4c23)cc1', 97),
  ('CC(C)(C)c1ccc(C2=c3nc(c4c5cccc6cccc(c3=4)c65)C(c3ccc(C(C)(C)C)cc3)=c3c4c(c5[n]3[Cu][n]3c2c2c(c3C(c3ccc(C(C)(C)C)cc3)=c3nc(c6c7cccc8cccc(c3=6)c87)C=5c3ccc(C(C)(C)C)cc3)-c3cccc5cccc-2c35)-c2cccc3cccc-4c23)cc1', 92);

# ---- query compound ----
Q: Entry "CCCCCCCCCCOc1ccc(C2=c3nc(c4c5ccc(Cl)c6c(Cl)ccc(c3=4)c65)C(c3ccc(OCCCCCCCCCC)cc3)=c3c4c(c5[n]3[Ni][n]3c2c2c(c3C(c3ccc(OCCCCCCCCCC)cc3)=c3nc(c6c7ccc(Cl)c8c(Cl)ccc(c3=6)c87)C=5c3ccc(OCCCCCCCCCC)cc3)-c3ccc(Cl)c5c(Cl)ccc-2c35)-c2ccc(Cl)c3c(Cl)ccc-4c23)cc1" : reported Absorption Retention after Light resistance test for 250 hours = ?
A: 94
